Numbers sourced from patent US11459315B2.

The following compounds are shown together with reported pEC50 values.
Test system: H3K27me3 mark in HeLa cells (EZH2)
EXPERIMENT DESCRIPTION: H3K27me3 Alpha Hela Assay (AlphaLISA)
Format: cell-based
CONDITION CONTEXT: HeLa cell assay; Table 3 classes; read-out: EC50 Cellular Activity
pEC50: −log10 of the molar value.

Look over these answered cases.
- COMPOUND: "CSc1cc(C)[nH]c(=O)c1CNC(=O)c1c(C)n([C@H](C)C2OCC(NC(C)(C)C)CO2)c2ccccc12 (single isomer, unassigned) [drawing 223]"
  pEC50: "6.90 to 7.60"
- COMPOUND: "CCOC1CN(C2CCC([C@@H](C)n3c(C)c(C(=O)NCc4c(SC)cc(C)[nH]c4=O)c4cccnc43)CC2)C1 (single isomer, unassigned) [drawing 261]"
  pEC50: "> 8.30"
- COMPOUND: "Cc1cc(Cl)c(CNC(=O)c2c(C)n([C@H](C)C3CCC(NC4(C)COC4)CC3)c3ccccc23)c(=O)[nH]1 (single isomer, unassigned) [drawing 202]"
  pEC50: "7.60 to 8.30"
- COMPOUND: "CSc1cc(C)[nH]c(=O)c1CNC(=O)c1c(C)n([C@H](C)C2CCC(O)CC2)c2ccccc12 (single isomer, unassigned) [drawing 251]"
  pEC50: "> 8.30"
- COMPOUND: "CSc1cc(C)[nH]c(=O)c1CNC(=O)c1c(C)n([C@H](C)C2CCC(NC3(C)CCOC3)CC2)c2ccccc12 (single isomer, unassigned) [drawing 269]"
  pEC50: "7.60 to 8.30"

As a next step, examine the compound that follows.
**Q:** For Cc1cc(C)c(CNC(=O)c2c(C)n([C@H](C)C3CCC(NC4(C)COC4)CC3)c3ccccc23)c(=O)[nH]1 (single isomer, unassigned) [drawing 204] , what is its reported pEC50?
**A:** > 8.30

* * *

The following compounds are shown together with reported pIC50 values.
MEASUREMENT TARGET: PRC2 containing wt EZH2 (Homo sapiens (Human))
Sequence (Q15910 whole entry): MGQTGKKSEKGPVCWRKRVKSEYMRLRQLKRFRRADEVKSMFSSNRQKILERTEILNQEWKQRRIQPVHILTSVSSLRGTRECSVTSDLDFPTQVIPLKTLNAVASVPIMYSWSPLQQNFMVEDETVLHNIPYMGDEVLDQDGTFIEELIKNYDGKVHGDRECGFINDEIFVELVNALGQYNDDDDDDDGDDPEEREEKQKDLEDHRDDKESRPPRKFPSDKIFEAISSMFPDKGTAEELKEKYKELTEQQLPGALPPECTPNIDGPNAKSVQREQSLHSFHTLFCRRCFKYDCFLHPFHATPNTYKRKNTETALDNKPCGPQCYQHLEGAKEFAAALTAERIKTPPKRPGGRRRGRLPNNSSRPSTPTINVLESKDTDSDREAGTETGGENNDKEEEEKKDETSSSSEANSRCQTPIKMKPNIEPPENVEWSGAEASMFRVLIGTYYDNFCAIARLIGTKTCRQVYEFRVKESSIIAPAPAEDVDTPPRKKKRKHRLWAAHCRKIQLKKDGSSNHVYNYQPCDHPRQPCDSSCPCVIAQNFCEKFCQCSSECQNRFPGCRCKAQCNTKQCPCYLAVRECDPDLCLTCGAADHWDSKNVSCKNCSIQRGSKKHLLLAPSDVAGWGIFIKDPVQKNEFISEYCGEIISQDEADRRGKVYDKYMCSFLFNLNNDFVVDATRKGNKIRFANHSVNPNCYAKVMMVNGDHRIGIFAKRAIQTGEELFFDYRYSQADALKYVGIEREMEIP
Sequence (O75530 whole entry partner): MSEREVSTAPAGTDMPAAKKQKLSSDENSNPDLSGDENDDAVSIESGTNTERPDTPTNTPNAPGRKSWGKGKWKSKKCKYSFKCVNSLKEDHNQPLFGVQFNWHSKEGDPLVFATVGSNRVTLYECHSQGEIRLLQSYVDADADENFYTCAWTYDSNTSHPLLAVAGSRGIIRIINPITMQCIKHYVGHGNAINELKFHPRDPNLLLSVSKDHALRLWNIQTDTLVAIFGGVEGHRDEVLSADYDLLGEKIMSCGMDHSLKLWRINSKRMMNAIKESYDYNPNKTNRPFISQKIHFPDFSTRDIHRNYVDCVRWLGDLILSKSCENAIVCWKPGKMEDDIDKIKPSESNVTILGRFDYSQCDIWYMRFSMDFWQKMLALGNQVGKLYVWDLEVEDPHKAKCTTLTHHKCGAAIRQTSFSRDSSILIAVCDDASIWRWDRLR
Sequence (Q15022 whole entry partner): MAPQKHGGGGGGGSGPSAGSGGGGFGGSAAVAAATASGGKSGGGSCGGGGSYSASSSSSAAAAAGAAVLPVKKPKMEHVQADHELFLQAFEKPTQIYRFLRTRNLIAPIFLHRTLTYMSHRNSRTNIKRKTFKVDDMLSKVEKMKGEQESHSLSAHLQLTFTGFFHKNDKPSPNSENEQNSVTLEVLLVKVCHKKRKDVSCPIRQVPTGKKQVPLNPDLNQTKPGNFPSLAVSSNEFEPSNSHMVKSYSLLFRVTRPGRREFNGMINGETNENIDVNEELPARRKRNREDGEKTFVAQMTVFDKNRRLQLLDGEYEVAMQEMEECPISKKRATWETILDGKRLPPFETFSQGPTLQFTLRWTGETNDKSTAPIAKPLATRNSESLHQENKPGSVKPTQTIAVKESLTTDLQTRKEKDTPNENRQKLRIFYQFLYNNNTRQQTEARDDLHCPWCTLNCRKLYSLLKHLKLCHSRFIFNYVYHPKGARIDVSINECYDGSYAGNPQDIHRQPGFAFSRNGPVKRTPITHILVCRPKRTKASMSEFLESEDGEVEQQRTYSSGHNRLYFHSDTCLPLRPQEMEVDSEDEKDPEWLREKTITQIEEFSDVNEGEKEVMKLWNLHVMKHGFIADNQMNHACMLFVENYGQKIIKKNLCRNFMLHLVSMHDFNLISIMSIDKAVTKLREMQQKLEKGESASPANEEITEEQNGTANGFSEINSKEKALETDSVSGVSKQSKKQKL
Sequence (Q09028 whole entry partner): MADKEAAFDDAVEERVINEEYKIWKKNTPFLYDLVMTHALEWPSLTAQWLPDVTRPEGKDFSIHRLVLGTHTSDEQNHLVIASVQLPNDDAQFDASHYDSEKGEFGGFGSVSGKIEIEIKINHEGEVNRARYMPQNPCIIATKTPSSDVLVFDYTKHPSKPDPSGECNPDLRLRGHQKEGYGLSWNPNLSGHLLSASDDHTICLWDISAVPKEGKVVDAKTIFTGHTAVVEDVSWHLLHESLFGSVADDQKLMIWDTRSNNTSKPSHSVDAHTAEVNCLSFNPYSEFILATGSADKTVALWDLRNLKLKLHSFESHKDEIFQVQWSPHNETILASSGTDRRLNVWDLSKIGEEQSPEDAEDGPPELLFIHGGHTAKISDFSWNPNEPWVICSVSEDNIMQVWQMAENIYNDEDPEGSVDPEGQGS
Sequence (Q6ZN18 whole entry partner): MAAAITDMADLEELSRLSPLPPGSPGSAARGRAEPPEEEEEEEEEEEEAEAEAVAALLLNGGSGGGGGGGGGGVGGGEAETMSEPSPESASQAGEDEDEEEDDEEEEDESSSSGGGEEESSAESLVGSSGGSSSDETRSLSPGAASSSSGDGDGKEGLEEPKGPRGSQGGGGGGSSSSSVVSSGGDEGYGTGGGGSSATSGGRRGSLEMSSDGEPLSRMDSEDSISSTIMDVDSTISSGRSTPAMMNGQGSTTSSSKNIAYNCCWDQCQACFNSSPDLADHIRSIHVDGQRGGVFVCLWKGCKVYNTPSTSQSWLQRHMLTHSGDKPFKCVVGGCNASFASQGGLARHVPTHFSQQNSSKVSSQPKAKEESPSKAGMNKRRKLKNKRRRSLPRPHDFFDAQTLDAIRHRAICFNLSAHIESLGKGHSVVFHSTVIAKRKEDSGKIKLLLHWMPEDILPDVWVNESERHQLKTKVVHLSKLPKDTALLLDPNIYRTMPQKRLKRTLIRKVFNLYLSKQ
EXPERIMENT DESCRIPTION: EZH2 biochemical assay (IC50), 3H-SAM incorporation into biotinylated H3 peptide
CONDITION CONTEXT: EZH2 (IC50), 30 pM PRC2 containing wt EZH2; 3-5 h pre-incubation
Procedure: EZH2 biochemical assay (IC50): Compound potencies were assessed through incorporation of ^3H-SAM into a biotinylated H3 peptide. […] 35 μl of the quenched solution was transferred to streptavidin coated FlashPlates (PerkinElmer), incubated 1-2 h, washed, and read in a TopCount Reader (PerkinElmer). […]
pIC50: −log10 of the molar value.

Look over these answered cases.
- COMPOUND: "CSc1cc(C)[nH]c(=O)c1CNC(=O)c1c(C)n([C@H](C)C2CCN(CC(C)(C)O)CC2)c2ccccc12"
  VALUE: "> 9.30"
- COMPOUND: "CSc1cc(C)[nH]c(=O)c1CNC(=O)c1c(C)n([C@H](C)C2CCC(N3CC34COC4)CC2)c2ncccc12 (single isomer, unassigned) [139 (isomer 1)]"
  VALUE: "> 9.30"
- COMPOUND: "CSc1cc(C)[nH]c(=O)c1CNC(=O)c1c(C)n([C@H](C)C2CCC(N3CC(C#N)C3)CC2)c2ccccc12 (single isomer, unassigned) [138 (isomer 1)]"
  VALUE: "8.30 to 9.30"
- COMPOUND: "COC1CN(C2CCC([C@@H](C)n3c(C)c(C(=O)NCc4c(SC)cc(C)[nH]c4=O)c4ccccc43)CC2)C1 (single isomer, unassigned) [4 (isomer 1)]"
  VALUE: "> 9.30"
- COMPOUND: "CSc1cc(C)[nH]c(=O)c1CNC(=O)c1c(C)n([C@H](C)C2CCC(N3CC(F)(F)C3)CC2)c2ccccc12 (single isomer, unassigned) [23 (isomer 2)]"
  VALUE: "> 9.30"

As a next step, examine the compound that follows.
**Q:** For `CSc1cc(C)[nH]c(=O)c1CNC(=O)c1c(C)n([C@H](C)C2CCN(C3CC3)CC2)c2ncccc12` , what is its reported pIC50?
**A:** > 9.30
